target: CELF1 RRM123 (Xenopus, UniProt O57406 1-214+385-489, internal_change); assay: ITC; n=0.85; ITC: 25 mM potassium phosphate, 100 mM NaCl, pH 7.0, 25 C, 12.5 uM protein, 125 uM RNA in syringe; NMR: same buffer, 298 K, ~200-250 uM protein; settings: protein: recombinant; tags: N-terminal His; single strand
Sequence (O57406 other isoform, or with tags, fused parts or gaps): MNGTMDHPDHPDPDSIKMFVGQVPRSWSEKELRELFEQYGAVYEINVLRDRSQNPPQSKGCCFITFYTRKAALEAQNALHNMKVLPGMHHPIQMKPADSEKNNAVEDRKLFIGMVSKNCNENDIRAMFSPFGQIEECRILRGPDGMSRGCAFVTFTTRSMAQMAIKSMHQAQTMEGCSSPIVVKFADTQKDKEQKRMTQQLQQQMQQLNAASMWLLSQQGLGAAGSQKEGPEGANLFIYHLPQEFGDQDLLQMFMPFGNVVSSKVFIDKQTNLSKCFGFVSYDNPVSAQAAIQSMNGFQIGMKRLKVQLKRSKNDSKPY
Attribute measured: Kd (nM)
One number for each entry, in nM.

May I ask what Kd has been recorded for UGUUUUGUUUUUUGU (ssRNA) [EDEN-2U/4U] ?
110

Recorded values, source paper PMC3737555.
